Value source: patent US20100261660A1

target: T1, Soluble CTLA-4-Ig (extracellular domain of human CTLA-4 fused to the Fc portion of human IgG1) (human, UniProt P16410 36-161, FITC-conjugated in the FACS binding assays); assay: competitive FACS on transfected cells, FITC-sCTLA-4-Ig with biotin-sCD28-Ig; grade 0-2 of CTLA-4/CD28 ratio vs WT hB7-1
T1 construct: extracellular domain; bought from R&D Systems; also called sCTLA-4-Ig; CTLA-4-Ig Fc; not shown: Fc portion of human IgG1
T1 sequence (P16410 36-161): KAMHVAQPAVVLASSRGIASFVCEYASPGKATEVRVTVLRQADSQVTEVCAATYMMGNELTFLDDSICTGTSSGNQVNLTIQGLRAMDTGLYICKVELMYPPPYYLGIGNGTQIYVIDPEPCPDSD
Measured Quantity: Binding Score
No unit in the answer, only the number.

Binder | Binding Score
Round 2 CTLA4 A-F10-1 (ligand) ITPKSVTKRVKETVMLSCDYNTSTEELTSLRIYWQKDSKMVLAILPGKVQVWPEYKNRTITDMNDNPRIVILALRLSDKGTYTCVVQKNENGSFRREHLTSVTLSIRADFPVPTINDLGNPSPNIRRLICSTSGGFPRPHLYWLENGEELNATNTTLSQDPETKLYMISSELDFNMTSNHSFLCLVKYGDLTVSQTLYWQESKPTPSANQHLTWTIIIPVSAFGISVIIAVILTCLTCRNAAIRRQRRENEVEMQSCSQSP | 1
Round 2 CTLA4BP 2x1-g8 (ligand) VIHVTKEVKEVATLSCGHNVSVEELAQTRIHWQKEKKMVLTMMSGDMNIWPEYKNRTIFDITNNLSVVILALRPSDEGTYECVVLKYEKDAFKREHLAEVTLSVKADFPTPSITDFEIPPSNIRRIICSTSGGFPEPHLSWLENGEELNAINTTVSQDPGTELYTVSSKLDFNMTTNRSFVCLIKYGHLRVNQTFNWNTPKQEHFPDNLLPSWAITLISVNGIFVICCLTYCFAPRCRERKSNERLRRESVRPV | 1

Proceed to the following item.
Query string: Requested field: Binding Score. Item: Round 2 CTLA4 A-B4-6 (ligand) ITPKSVTKRVKETVMLSCDYNTSTEELTSLRIYWQKDSKMVLAILPGKVQVWPEYKNRTITDMNDNPRIVILALRLSDKGTYTCVVQKNENGSFRREHLTSVTLSIRADFPVPTINDLGNPSPNIRRLICSTSGGFPRPHLYWLENGEELNATNTTLSQDPETKLYMISSELDFNMTSNHSFLCLVKYGDLTVSQTFYWQESKPTPSANQHLTWTIIIPVSAFGISVIIAVILTCLTCRNAAIRRQRRENEVEMQSCSQSP
Result string: 1
